Assay: Solubility of Compound 1 in aqueous solution containing various solubilizers (Example 1)
Format: physicochemical
Conditions: water, peg 400 50%, organic solvent or mixture; Polyethylene glycol 400, 50 w/v %, 25° C., 24 hours
Procedure: Solubilizers, β-CD, polyethylene glycol 400 and Pluronic F60, were added to demineralized water respectively to prepare solutions having concentrations shown in TABLE 1. […] The test tubes were fixed in thermostatic bath controlled at 25° C. and allowed to stand for 24 hours.
experimental endpoint: solubility at 24 h (µg/mL)
Express the result in µg/mL but write the number alone.

[ask] Request the reported solubility at 24 h associated with `CCn1c(=Cc2sc3c4ccccc4ccc3[n+]2CC)sc(=CC=C2Sc3ccc4ccccc4c3N2C)c1=O`
[reply] 870

----------
experiment: Solubility of Compound 1 in aqueous solution containing various solubilizers (Example 1); assay type: physicochemical; settings: water; β-CD 1.5 w/v %, 25° C., 24 hours
experimental endpoint: solubility at 24 h (µg/mL)
Give your result in µg/mL as a bare value.

[ask] Name the reported solubility at 24 h value associated with the compound `CCn1c(=Cc2sc3c4ccccc4ccc3[n+]2CC)sc(=CC=C2Sc3ccc4ccccc4c3N2C)c1=O`
[reply] 8170

----------
assay: Solubility of rhodacyanine compounds in human serum at 37° C.
Form field: solubility (one value per entry).

>>> df
                                   compound  experimental_endpoint  reported_result
0  CN1C(=c2sc(=Cc3oc4ccccc4[n+]3C)n(C)c2=O)Sc2ccccc21             solubility        300 µg/mL

[ask] For `CCn1c(=CC2=[N+](CC)CCS2)sc(=C2Sc3ccccc3N2C)c1=O` , what is its reported solubility?
[reply] > 1000 µg/mL

[ask] Now the same for CCN1C(=CC=c2sc(=Cc3cc[n+](CC)c4ccccc34)n(CC)c2=O)C=Cc2ccccc21 [drawing 20]
[reply] < 100 µg/mL

[ask] Param item: CCn1c(=Cc2oc3ccccc3[n+]2CC)sc(=C2Sc3ccccc3N2C)c1=O [drawing 17]
[reply] < 100 µg/mL

[ask] Next: CCn1c(=Cc2sc3c4ccccc4ccc3[n+]2CC)sc(=CC=C2Sc3ccc4ccccc4c3N2C)c1=O [drawing 21]
[reply] < 100 µg/mL

[ask] Ok, now CCN1C(=CC=c2sc(=CC3=[N+](CC)CCS3)n(CC)c2=O)C=Cc2ccccc21 [drawing 16]
[reply] < 100 µg/mL

[ask] What do you have for `CCn1c(=Cc2sc3ccccc3[n+]2CC)sc(=CC=C2SC=C(C)N2C)c1=O` ?
[reply] < 1000 µg/mL

[ask] Same question for `CCn1c(=Cc2scc(C)[n+]2CC)sc(=C2Sc3ccccc3N2C)c1=O` please.
[reply] > 1000 µg/mL

[ask] Can you check `CCn1c(=CC2=[N+](CC)CCS2)sc(=C2SC3=C(CCCC3)N2C)c1=O` next?
[reply] > 1000 µg/mL

[ask] Try this compound next: `CCn1c(=Cc2oc3c4ccccc4ccc3[n+]2CC)sc(=C2Sc3ccccc3N2C)c1=O`
[reply] < 100 µg/mL

----------
experiment: Solubility of Compound 1 in aqueous solution containing various solubilizers (Example 1); assay type: physicochemical; conditions: water; Pluronic F60 0.02 w/v %, 25° C., 24 hours
experimental endpoint: solubility at 24 h (µg/mL)
Quick reminder: number only, in µg/mL, skip the unit.

[ask] Recorded solubility at 24 h of CCn1c(=Cc2sc3c4ccccc4ccc3[n+]2CC)sc(=CC=C2Sc3ccc4ccccc4c3N2C)c1=O [Compound 1] , please.
[reply] 3230
